experiment: Binding affinity to kappa opioid receptor in guinea pig cerebral cortex after 2.5 hrs; assay type: tissue-based, Cavia porcellus
test readout: Ki (nM)

Consider the following illustrative entries.
CCCC[C@H](N)C(=O)N[C@@H](Cc1ccc2ccccc2c1)C(=O)N[C@H](CCCC)C(=O)N[C@@H](CC1CCCCC1)C(N)=O 27
CCCC[C@@H](NC(=O)[C@H](Cc1ccccc1)NC(=O)[C@@H](N)Cc1ccccc1)C(=O)N[C@@H](CCCNC(=N)N)C(N)=O 1.2

a = CCCC[C@@H](NC(=O)[C@H](Cc1ccccc1)NC(=O)[C@@H](N)Cc1ccccc1)C(=O)N[C@@H](CC1CCCCC1)C(N)=O
b = CCCC[C@H](N)C(=O)N[C@@H](Cc1ccc2ccccc2c1)C(=O)N[C@@H](C(=O)N[C@@H](CC1CCCCC1)C(N)=O)[C@@H](C)CC
Return label of the item with the larger Ki. Candidates: a , b . Indicate your choice by writing its label.
b

====

experiment: Binding affinity to kappa opioid receptor in guinea pig cerebral cortex after 2.5 hrs; type: tissue-based, Cavia porcellus
pKi: −log10 of the molar value.
test readout: pKi

a = CCCC[C@@H](NC(=O)[C@H](Cc1ccc2ccccc2c1)NC(=O)[C@@H](N)Cc1ccccc1)C(=O)N[C@@H](CC1CCCCC1)C(N)=O
b = CCCC[C@H](N)C(=O)N[C@@H](Cc1ccccc1)C(=O)N[C@H](Cc1c[nH]c2ccccc12)C(=O)N[C@@H](CC1CCCCC1)C(N)=O
c = CCCC[C@H](N)C(=O)N[C@@H](Cc1ccccc1)C(=O)N[C@@H](C(=O)N[C@@H](CC1CCCCC1)C(N)=O)[C@@H](C)CC
d = CCCC[C@H](N)C(=O)N[C@@H](Cc1ccc2ccccc2c1)C(=O)N[C@H](Cc1c[nH]c2ccccc12)C(=O)N[C@@H](CCCNC(=N)N)C(N)=O
Sort ascending by pKi. Write the labels out in the order the request specifies.
b, d, c, a
(b: 5.00, d: 5.75, c: 6.47, a: 7.48)

a = NC(=O)[C@H](CC1CCCCC1)NC(=O)[C@@H](Cc1c[nH]c2ccccc12)NC(=O)[C@H](Cc1ccccc1)NC(=O)[C@@H](N)Cc1ccccc1
b = CCCC[C@@H](NC(=O)[C@H](Cc1ccc2ccccc2c1)NC(=O)[C@@H](N)Cc1ccccc1)C(=O)N[C@@H](CCCNC(=N)N)C(N)=O
c = CCCC[C@H](N)C(=O)N[C@@H](Cc1ccccc1)C(=O)N[C@H](CCCC)C(=O)N[C@@H](CCCNC(=N)N)C(N)=O
d = N=C(N)NCCC[C@H](NC(=O)[C@@H](Cc1c[nH]c2ccccc12)NC(=O)[C@H](Cc1ccc2ccccc2c1)NC(=O)[C@@H](N)Cc1ccccc1)C(N)=O
Place the items in sequence of falling pKi. Write the labels out in the order the request specifies.
c, b, d, a
(c: 8.38, b: 8.15, d: 5.94, a: 5.00)

1 = CC[C@H](C)[C@@H](NC(=O)[C@H](Cc1ccc2ccccc2c1)NC(=O)[C@@H](N)Cc1ccccc1)C(=O)N[C@@H](CCCNC(=N)N)C(N)=O
2 = CC[C@H](C)[C@@H](NC(=O)[C@H](Cc1ccc2ccccc2c1)NC(=O)[C@@H](N)Cc1ccccc1)C(=O)N[C@@H](CC1CCCCC1)C(N)=O
Return label of the item with the larger pKi. Candidates: 1 , 2 . Indicate your choice by writing its label.
1
(1: 8.44, 2: 7.28)
